- Tested on: SK-N-SH
- experiment_summary: MTS cytotoxicity assay in SK-N-SH
- Format: cell-based
- assay_context: read-out: IC50 concentration in SK-N-SH
pIC50: −log10 of the molar value.
readout_label: pIC50

> print(dat)
                                   compound  result.value
1  CN1CCc2ccccc2C1Cc1ccccc1NC(=O)c1sc2ccccc2c1Cl (stereo not shown) [NSC309874]          4.00
